Item-by-item account of TGI
- System: SR leukemia
- experimental_protocol: NCI tumour cell line growth inhibition, 48 h

Examples with answers:
CC(NC(=O)c1ccccc1)C(=O)N(Cc1ccccc1)Cc1ccccc1 (stereo unspecified)	64.6 µM
COc1ccc(CN2C(=O)CCC/C=C\[C@H]2CI)cc1	> 100 µM
CN1CC(c2ccccc2)=Cc2c1ccc(N)c2N=N	> 100 µM
COc1cc2c(cc1OC)C(=O)N(c1ccc(O)cc1)C2	> 100 µM
COc1ccc(C2SCC(=O)N2N=C2NC(=O)CC(=O)N2)cc1 (stereo unspecified)	> 100 µM
CO/C(=N\N=C(/C)C(F)(F)F)c1ccncc1	> 100 µM

What value of TGI has been reported for the following molecule? COc1ccc2c(c1)C(=O)c1c-2c(NCCCN(C)C)nc2ccccc12
3.58 µM

Repeat with CCC1(O)C=CC(=O)C=C1
> 100 µM

Repeat with N#CI1OC(=O)c2ccccc21
> 100 µM

Repeat with N=C(N)/N=C(/C=C/c1ccccc1)CC1OC(=O)c2ccccc21 (stereo unspecified)
> 100 µM

Repeat with CN(C(=O)C1CCCCC1)c1ccccc1I(=O)=O
36.1 µM

====

Item-by-item account of TGI
- Tested on: 786-0 renal
- experimental_protocol: NCI tumour cell line growth inhibition, 48 h
The figure you give is taken to be in µM; do not add the unit.

COCCNCC(O)Cn1c2ccc(Cl)cc2c2cc(Cl)ccc21 (stereo unspecified)	3.42
[N-]=N[N+]#I1OC(C(F)(F)F)(C(F)(F)F)c2ccccc21	31.6
c1ccc2c(c1)O[As](O[As]1Oc3ccccc3O1)O2	15.4
COc1cc2c(cc1O)[C@H](C)C(c1ccc(Cl)cc1)O2 (stereo partly specified)	32
CCC(=O)Sc1ccccc1C(=O)Nc1ccc(Cl)cc1	41.8

What value of TGI has been reported for the following molecule? CN(C)CC1CCC/C(=C\c2ccc(N(C)C)cc2)C1=O (stereo unspecified)
10.8

Repeat with Brc1c[n+](Cc2ccc3ccccc3c2)cn1Cc1ccc2ccccc2c1
3.33

Repeat with C[C@]12CC[C@H](O)CC1=CC[C@@H]1[C@@H]2CC[C@]2(C)C(=O)/C(=C/c3cccc(OCCCn4ccnc4)c3)C[C@@H]12
47.2

Repeat with COC1/C=C\C=C(/C)C(=O)NC2=CC(=O)C(NCCCl)=C(CC(C)CC(OC)C(O)C(C)/C=C(/C)C1OC(N)=O)C2=O (stereo unspecified)
9.05

====

Item-by-item account of TGI
- Test system: EKVX NSCLC
- experimental_protocol: NCI tumour cell line growth inhibition, 48 h

Examples with answers:
Cc1cc(Br)c(N2C3=C(CC4=C2CCCC4=O)C(=O)CCC3)c(Br)c1	> 100 µM
CN(C(=O)c1ccc(F)cc1C(F)(F)F)C1CCN(c2nnc(-c3ccnn3C)c3ccccc23)CC1	> 100 µM
Cc1cc(-c2ccc(C(=O)C(Cl)(Cl)Cl)[nH]2)on1	> 100 µM
CCCCOC1CC2(c3ccc(OC)cc3)C(=O)c3ccccc3N2O1 (stereo not given)	> 100 µM
CC(=O)O[C@]1(C(C)=O)CC[C@H]2[C@@H]3C[C@H](C)C4=CC(=O)C=C[C@]4(C)[C@@]3(F)[C@@H](O)C[C@@]21C	> 100 µM
Cn1ncc2c(Nc3ccc(Br)cc3)nc(Nc3ccc(Br)cc3)nc21	9.73 µM
CCOc1ncn(-c2ccc(NC(=S)Nc3cccc(O)c3)cc2)n1	> 100 µM
Nc1cc2c(cc1[N+](=O)[O-])[nH]c1c(-c3ccccc3)nccc12	> 80.5 µM

What value of TGI has been reported for the following compound? CCCOC(=O)N[C@H]1CCc2c(Br)c(OC)c(OC)c(OC)c2-c2ccc(SC)c(=O)cc21
> 100 µM

Repeat with COC(=O)c1cnc2nc(N3CCOCC3)[nH]n2c1=O
> 100 µM

====

- System: ACHN renal
- experimental_protocol: NCI tumour cell line growth inhibition, 48 h
Item-by-item account of GI50

Examples with answers:
COc1cc2c(-c3nc4cc(Cl)c(F)cc4s3)cc(=O)oc2c(C)c1OC	1.36 µM
Cc1ccc(S(=O)(=O)N(C)C)cc1[N+](=O)[O-]	> 100 µM
O=C1Nc2ccc(Cl)cc2/C1=C\c1c(-c2ccc(F)cc2)nc2ccccn12	3.25 µM

Consider the record given below.
What value of GI50 has been reported for the following compound? CCN(CC)c1ccc(NC(C(=O)c2ccccc2)c2ccccc2)cc1 (centres undefined)
1.9 µM

====

- Tested on: 786-0 renal
- experimental_protocol: NCI tumour cell line growth inhibition, 48 h
recorded_metric: TGI (µM)
The figure you give is taken to be in µM; do not add the unit.

Examples with answers:
CC1=C/C(=C(\c2ccc(N(C)C)cc2)c2ccc([N+](C)(C)C)cc2)C=CC1=[N+](C)C	58.2
CCOc1ccc(NC(=O)Nc2cc(C(C)C)ccc2C)cc1	6.72
COc1c2nc(CCl)n(C)c(=O)c2c(OC)c2c(=O)n(C)c(CCl)nc12	3.29
O=C1c2ccn(CCCCN3CCOCC3)c2C(=O)c2c1c(O)c1ccccc1c2O	25.2
CC1(C)CCC(S(=O)(=O)c2ccc3c(c2)/C(=N\O)c2cc(S(=O)(=O)N4CCC(O)(c5cccc(C(F)(F)F)c5)CC4)ccc2-3)CC1	0.36
C=C(NC(=O)C(=C)NC(=O)c1csc(C2=NC3c4csc(n4)C4NC(=O)c5csc(n5)C(C(C)(O)C(C)O)NC(=O)C5CSC(=N5)/C(=C/C)NC(=O)C(C(C)O)NC(=O)c5csc(n5)C3(CC2)NC(=O)C(C)NC(=O)C(=C)NC(=O)C(=C)NC(=O)C(C(C)C)NC2C=Cc3c(C(C)O)cc(nc3C2O)C(=O)OC4C)n1)C(N)=O (centres undefined)	11.3
OCC(O)CC[CH2][Sn]([c]1ccccc1)([c]1ccccc1)[c]1ccccc1 (centres undefined)	28.2

What value of TGI has been reported for the following molecule? CCc1nc2c(O)ccc(O)c2nc1C
26.3

====

- Tested on: M14 melanoma
- experimental_protocol: NCI tumour cell line growth inhibition, 48 h; in the data active = GI50 below about 0.43 µM; inactive = the rest
Select the correct class. Options are active, inactive and nothing else.

See these solved cases before continuing.
Cn1ncc2cc(-c3cnc(N)c(Cl)c3N3CCC4(CCNC4=O)CC3)ccc21	inactive
OCC(O)CC[CH2][Sn]([c]1ccccc1)([c]1ccccc1)[c]1ccccc1 (stereo not given)	inactive
CCOc1ccc(NC(=O)Nc2cc(C(C)C)ccc2C)cc1	inactive
COc1ccc2c(c1)O/C(=C\c1cccc(OCC(=O)Nc3nc4ccccc4s3)c1)C2=O	inactive
OCC1SC(n2cnc3cncnc32)C(O)C1O (stereo not given)	inactive

// param item: Brc1c[n+](Cc2ccc3ccccc3c2)cn1Cc1ccc2ccccc2c1 ; yields the recorded call
inactive

Repeat with O=S(=O)(Nc1ccc(-c2nc(-c3cccc(OCCN4CCOCC4)c3)c(-c3ccnc(Br)c3)[nH]2)cc1)c1ccccc1
inactive

Repeat with Nc1ccccc1C#C/C=C\C#Cc1ccc(F)cc1F
inactive

Repeat with O=C(CC12CC3CC(CC(C3)C1)C2)NCCOCCOCCNC(=O)c1cc2c(o1)C(=O)c1ccccc1C2=O
active

Repeat with COc1ccc2c(c1)C(=O)c1c-2c(NCCCN(C)C)nc2ccccc12
inactive

Repeat with COc1ccc(-c2nc(-c3nc4ccc(F)cc4[nH]3)cc3c2[nH]c2ccccc23)cc1
inactive

Repeat with O=C1C=C(SCCO)C(=O)c2ccccc21
inactive

Repeat with CC1(C)CCC(S(=O)(=O)c2ccc3c(c2)/C(=N\O)c2cc(S(=O)(=O)N4CCC(O)(c5cccc(C(F)(F)F)c5)CC4)ccc2-3)CC1
active

Repeat with c1ccc2c(c1)O[As](O[As]1Oc3ccccc3O1)O2
inactive

Repeat with COc1ccccc1-c1cc2c3c(nc4ccccc42)C(=O)c2cccnc2-c3n1
inactive

====

- Tested on: HT29 colon
- experimental_protocol: NCI tumour cell line growth inhibition, 48 h
Item-by-item account of TGI

CCN(CC)c1ccc(NC(C(=O)c2ccccc2)c2ccccc2)cc1 (stereo unspecified)	> 100 µM
COCCNCC(O)Cn1c2ccc(Cl)cc2c2cc(Cl)ccc21 (stereo unspecified)	4.24 µM
COC(=O)Cc1c([C@@H]2Nc3ccccc3[C@H]2CC(=O)OC)[nH]c2ccccc12	> 100 µM
OCC(O)COc1ccc(Br)cc1 (stereo unspecified)	> 100 µM
O=C(CCSC(CC(=O)c1ccc(Cl)cc1)c1ccc(Cl)cc1)Nc1ccc(Cl)cc1 (stereo unspecified)	24.6 µM

Consider the record given below.
What value of TGI has been reported for the following compound? O=S(=O)(O)c1ccc(NN(c2c(O)ccc3ccccc23)S(=O)(=O)O)cc1
> 100 µM

====

- Tested on: RXF 393 renal
- experimental_protocol: NCI tumour cell line growth inhibition, 48 h; in the data active = GI50 below about 0.43 µM; inactive = the rest
Select the correct class. Options are active, inactive and nothing else.

O=S(=O)(Nc1ccc(-c2nc(-c3cccc(OCCN4CCOCC4)c3)c(-c3ccnc(Br)c3)[nH]2)cc1)c1ccccc1	inactive
Cc1nc2sc(C(=O)Nc3cccc4ccccc34)c(N)c2cc1C(C)O (stereo unspecified)	active
CS(=O)(=O)c1nccc(-c2c(-c3cccc(OCc4ccc(F)cc4)c3)nc3sccn23)n1	inactive
COC1=CC(c2ccc[nH]2)=N/C1=C\c1[nH]c(C)c(C(=O)CCC(=O)Oc2ccc3c(c2)CCC2C3CC[C@]3(C)C(=O)CC[C@@H]23)c1C (stereo partly specified)	inactive

// param item: O=C1Nc2ccc(F)c3c(OCCO)cc(-c4ccc[nH]4)c1c23 ; yields the recorded call
inactive

Repeat with CN(C(=O)C1CCCCC1)c1ccccc1I(=O)=O
inactive
